Some compounds, each annotated with its measured GI50.
system: IGROV-1; test: NCI tumour cell line growth inhibition, 48 h
Calls of active or inactive are those of the source. Rule as the data show it: active = GI50 up to about 1.1 µM and inactive = higher.

Examples with their reported GI50 follow.
{"compound": "CC(C)(C)OC(=O)NCCc1ccc(N)cc1", "GI50": "> 100 µM (inactive)"}
{"compound": "C#CC(O)Cc1ccc(OC)c2occc12 (stereo unspecified)", "GI50": "> 100 µM (inactive)"}
{"compound": "Cc1ccc(S(=O)(=O)N/C(=C\\C=C\\c2ccccc2)C(=O)C(C)(C)C)cc1", "GI50": "50.5 µM (inactive)"}
{"compound": "c1ccc(N2CCN(CCN3CCc4c([nH]c5ccccc45)C3c3cccnc3)CC2)cc1 (stereo unspecified)", "GI50": "> 100 µM (inactive)"}
{"compound": "CC(=O)C(CN(C)C)C(c1ccccc1)c1c(O)c2ccccc2oc1=O (stereo unspecified)", "GI50": "> 100 µM (inactive)"}

Give the reported value of GI50 for this record: COc1ccc2c(c1)CCCC(Br)C2=O (stereo unspecified) 1.51 µM (inactive)

Give the reported value of GI50 for this record: CC1=C(c2cc(C(=O)Nc3cccc(C(F)(F)F)c3)nc(NC#N)n2)Sc2ccccc2N1 > 100 µM (inactive)

Give the reported value of GI50 for this record: N#Cc1c(-c2ccccc2)[nH]c2ccc(Cl)cc2c1=O 63.1 µM (inactive)

Give the reported value of GI50 for this record: C[C@@H]1OC2(O)[C@@H]3CCCN3C(=O)N(Cc3ccccc3)N2C1=O (stereo partly specified) > 100 µM (inactive)

Give the reported value of GI50 for this record: Cc1ccc(C)c(COCCOCn2c(=O)[nH]c(=O)c3cc(Br)ccc32)c1 60.3 µM (inactive)

Give the reported value of GI50 for this record: CCCCCCCSCC1OC(n2cnc3c(N)ncnc32)C(O)C1O (stereo unspecified) 14.6 µM (inactive)

----------
Some molecules, each annotated with its measured GI50.
test system: DMS-273; assay: NCI tumour cell line growth inhibition, 48 h
Calls of active or inactive are those of the source. No stated cut-off is given here; in the data, active = GI50 up to about 1.1 µM and inactive = higher.

Examples with their reported GI50 follow.
{"molecule": "S=C(N/N=C/c1ccccc1)NC12CC3CC(CC(C3)C1)C2", "GI50": "22.6 µM (inactive)"}
{"molecule": "CCOC(=O)c1c(-c2ccccc2)oc(-c2ccccc2)c1C(=O)OCC", "GI50": "> 100 µM (inactive)"}
{"molecule": "Nc1ccn(C2C=C(CO)C(O)C2O)c(=O)c1 (stereo not drawn)", "GI50": "> 625 µM (inactive)"}
{"molecule": "Fc1cccc(F)c1C1SCc2nc3ccccc3n21 (stereo not drawn)", "GI50": "50.2 µM (inactive)"}
{"molecule": "COC(=O)C1(F)C(=O)NC(=O)NC1OC (stereo not drawn)", "GI50": "21.2 µM (inactive)"}
{"molecule": "O=c1c2ccc(Br)cc2nc(-c2ccccc2)n1NC1OC(CO)C(O)C(O)C1O (stereo not drawn)", "GI50": "> 100 µM (inactive)"}

Give the reported value of GI50 for this record: CC(=O)OCC(=O)[C@@]1(O)CC[C@H]2[C@@H]3CCC4=CC(=O)[C@H](C)C[C@]4(C)[C@H]3[C@@H](O)C[C@@]21C > 100 µM (inactive)

Give the reported value of GI50 for this record: COC(=O)C1=C(OC)c2cc3c(cc2C(c2cc(OC)c(OC)c(OC)c2)C1C(=O)OC)OCO3 (stereo not drawn) > 100 µM (inactive)

Give the reported value of GI50 for this record: CCCCCCCSCC1OC(n2cnc3c(N)ncnc32)C(O)C1O (stereo not drawn) 21.3 µM (inactive)

Give the reported value of GI50 for this record: CCOC(=O)/C(=C\c1cccs1)P(=O)(OCC)OCC 34.6 µM (inactive)

Give the reported value of GI50 for this record: CC1(C)C(=O)/C=C\C(=O)C(C)(C)C(=O)/C=C\C(=O)C(C)(C)C(=O)/C=C\C(=O)C(C)(C)C(=O)/C=C\C1=O 16.8 µM (inactive)

Give the reported value of GI50 for this record: CCCC(=O)OCC1OC(n2ccc(N)nc2=O)C(OC(=O)CCC)C1OC(=O)CCC (stereo not drawn) 36.7 µM (inactive)

Give the reported value of GI50 for this record: [O-]c1c2c(nn1-c1ccc(Cl)cc1)c1ccccc1c[n+]2Cc1ccccc1 > 100 µM (inactive)

----------
Some molecules, each annotated with its measured GI50.
system: CAKI-1; test: NCI tumour cell line growth inhibition, 48 h
The source made the active and inactive calls. Rule as the data show it: active = GI50 up to about 1.1 µM and inactive = higher.

Examples with their reported GI50 follow.
{"molecule": "O=C(/C=C1\\Nc2ccccc2N\\C1=C/C(=O)c1ccc(F)cc1)c1ccc(F)cc1", "GI50": "> 100 µM (inactive)"}
{"molecule": "COC(=O)/C=C1\\CCC2[C@@H](C(=O)CC3[C@]2(C)CCC[C@@]3(C)C(=O)OC)C1C (stereo not given in full)", "GI50": "30.1 µM (inactive)"}
{"molecule": "COc1ccc(/C=C/C(=N/NC(=O)N/N=C(/C=C/c2ccc(OC)cc2)C(C)C)C(C)C)cc1", "GI50": "> 100 µM (inactive)"}
{"molecule": "Cc1ccc(C)n1-c1ccccc1C1C=Cn2c(=O)oc3c(OC(C)C)c(OC(C)C)c(O)c1c32 (stereo not given)", "GI50": "22 µM (inactive)"}

Then this molecule:
Give the reported value of GI50 for this record: CN1CCN(CCCN2c3ccccc3Sc3ccc(C(F)(F)F)cc32)CC1 9.64 µM (inactive)

----------
system: NCI-H23; assay: NCI tumour cell line growth inhibition, 48 h
Calls of active or inactive are those of the source. No stated cut-off is given here; in the data, active = GI50 up to about 1.1 µM and inactive = higher.
measure: GI50

{"compound": "Cc1ccc2c(c1)C=CC1(O2)N(c2ccccc2)C(=S)OC1(C)C (centres undefined)", "measured.value": "35.4 µM (inactive)"}
{"compound": "CCOC(=O)Cc1nnc2n(-c3ccccc3)c(=O)c3ccccc3n12", "measured.value": "> 100 µM (inactive)"}
{"compound": "CCOC(=O)C1=C(NC)OCC1=O", "measured.value": "> 100 µM (inactive)"}

Then this compound:
Give the reported value of GI50 for this record: C=C1CCC2CC1[C@@H](C(=O)c1c[nH]c3ccccc13)NC2(C)C (some centres undefined) > 37.5 µM (inactive)

----------
tested on: CAKI-1; test: NCI tumour cell line growth inhibition, 48 h
Active and inactive are the calls of the source. Rule as the data show it: active = GI50 up to about 1.1 µM and inactive = higher.
measure: GI50

{"compound": "CCCC(=O)Nc1cn(COC)c(C(=O)N2C[C@H]3C[C@@]34C2=CC(=O)c2[nH]cc(C)c24)n1", "GI50": "2.72 µM (inactive)"}
{"compound": "C=C1[C@@H]([C@@]2(C)C=CC(=O)C(C)(C)[C@@H]2CC(=O)OC)CC[C@@]2(C)[C@H](c3ccoc3)OC(=O)[C@H]3O[C@]132", "GI50": "> 100 µM (inactive)"}
{"compound": "N#Cc1c(-c2ccccc2)[nH]c2ccc(Cl)cc2c1=O", "GI50": "1.62 µM (inactive)"}
{"compound": "COc1cc([C@@H]2c3cc4c(cc3[C@@H](NC(=O)c3ccc(C#N)cc3)C3COC(=O)[C@@H]32)OCO4)cc(OC)c1O (some centres undefined)", "GI50": "1.14 µM (inactive)"}
{"compound": "CCN(CC)CCCC(C)Nc1c2ccc(Cl)cc2nc2ccc(OC)cc12 (centres undefined)", "GI50": "1.59 µM (inactive)"}
{"compound": "CC(=O)O[C@H](C[C@@H](C)[C@H]1C(=O)[C@H](O)[C@@]2(C)C3CC[C@H]4C(C)(C)[C@@H](OC5OCC(O)C(O)C5O)CC[C@@]45C[C@@]35CC[C@]12C)[C@@H]1OC1(C)C (some centres undefined)", "GI50": "16.8 µM (inactive)"}

Give the reported value of GI50 for this record: C#CC(O)Cc1ccc(OC)c2occc12 (centres undefined) > 100 µM (inactive)

Give the reported value of GI50 for this record: O=C(O)C12CC3(C(=O)O)CC(C(=O)O)(CC(C(=O)O)(C1)C3=O)C2=O > 100 µM (inactive)

Give the reported value of GI50 for this record: CCOC(=O)C1C(=O)CC(O)(c2ccccc2)C(C(=O)OCC)C1c1ccc(OC)cc1 (centres undefined) 44.8 µM (inactive)

Give the reported value of GI50 for this record: CC(=O)OC12C3C4C1C1C2C3C41OC(C)=O (centres undefined) > 100 µM (inactive)

Give the reported value of GI50 for this record: [O-]c1c2c(nn1-c1ccc(Cl)cc1)c1ccccc1c[n+]2Cc1ccccc1 > 100 µM (inactive)

----------
tested on: U-251; assay: NCI tumour cell line growth inhibition, 48 h
Calls of active or inactive are those of the source. No stated cut-off is given here; in the data, active = GI50 up to about 1.1 µM and inactive = higher.
Outcomes you can answer with include only these: yes (1) (active), no (0) (inactive)

Previously resolved entries follow.
{"molecule": "C/N=c1\\ss/c(=N\\C(=S)N(C)C)n1-c1ccccc1", "qualitative.label": "no (0)"}
{"molecule": "CC1=C/C(O)CC(=O)Cc2nc(co2)C(=O)N2CCC=C2C(=O)OC(C(C)C)C(C)/C=C\\C(=O)NC/C=C\\1 (configuration not stated)", "qualitative.label": "no (0)"}
{"molecule": "COc1cc([C@@H]2c3cc4c(cc3[C@@H](NC(=O)c3ccc(C#N)cc3)C3COC(=O)[C@@H]32)OCO4)cc(OC)c1O (some centres not stated)", "qualitative.label": "yes (1)"}
{"molecule": "CC(=O)OCC(=O)[C@@]1(O)CC[C@H]2[C@@H]3CCC4=CC(=O)[C@H](C)C[C@]4(C)[C@H]3[C@@H](O)C[C@@]21C", "qualitative.label": "no (0)"}
{"molecule": "O=C(CC(Cl)=C(Cl)Cl)c1ccccc1", "qualitative.label": "no (0)"}
{"molecule": "CC(C)C(=O)CP(=O)(O)O", "qualitative.label": "no (0)"}

Attention now turns to another entry.
Could you please tell me the result logged for CCOC(=O)c1c(-c2ccc(OC)c(O)c2)c(C#N)c(=S)n(C2OC(COC(C)=O)C(OC(C)=O)C(OC(C)=O)C2OC(C)=O)c1-c1ccccc1 (configuration not stated) in this assay? no (0)
